- protocol.notes: Plasma pharmacokinetics of tipifarnib, LCMS/MS, non-compartmental analysis
- Type: in vivo, human
- conditions: human, plasma, oral, 1200 mg, Cmin, low, Day 5, 1200 mg bid, plasma
property: concentration at 5 day (ng/mL)
Your answer is read as ng/mL, so omit the unit and give the number.

Cn1cncc1[C@@](N)(c1ccc(Cl)cc1)c1ccc2c(c1)c(-c1cccc(Cl)c1)cc(=O)n2C yielded concentration at 5 day of 97

----------
- protocol.notes: Plasma pharmacokinetics of tipifarnib, LCMS/MS, non-compartmental analysis
- Type: in vivo, human
- conditions: human, plasma, oral, 1200 mg, Tmax, low, Day 1, 1200 mg, plasma
property: Tmax (h)
Just the number please, in h, no unit attached.

For this compound ( Cn1cncc1[C@@](N)(c1ccc(Cl)cc1)c1ccc2c(c1)c(-c1cccc(Cl)c1)cc(=O)n2C ), measured Tmax is 2

----------
- protocol.notes: Plasma pharmacokinetics of tipifarnib, LCMS/MS, non-compartmental analysis
- Format: in vivo, human
- conditions: human, plasma, oral, median Cmax, two patients with decreased blasts, day 5
property: Cmax (ng/mL)
Numbers only here, please. The scale is ng/mL.

Form field Cmax, entry Cn1cncc1[C@@](N)(c1ccc(Cl)cc1)c1ccc2c(c1)c(-c1cccc(Cl)c1)cc(=O)n2C : 2550

----------
- protocol.notes: Plasma pharmacokinetics of tipifarnib, LCMS/MS, non-compartmental analysis
- Format: in vivo, human
- conditions: human, plasma, oral, median Cmax, remaining patients, day 5
property: Cmax (ng/mL)
Give the quantity in ng/mL, number only.

Entry under test: Cn1cncc1[C@@](N)(c1ccc(Cl)cc1)c1ccc2c(c1)c(-c1cccc(Cl)c1)cc(=O)n2C [tipifarnib, Tipifarnib] . Its Cmax was 881

Provenance of the data: paper PMC3165084
